The variants listed here are annotated with their protein stability index.
B1: GMCL1 (parent)
chain: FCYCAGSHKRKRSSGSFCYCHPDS

variants of: B1; test: protein stability index of a GFP-peptide fusion (GPS, HEK-293T) (PSI 1-6); higher = more stable; conditions: c terminus: a fixed tail appended;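 also: lentivirally expressed fusions sorted by FACS into six bins by GFP to DsRed ratio, PSI derived from sequencing read proportions per bin multiplied by bin number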
Just the number, please.

What the record says about FCYCAGSHKRKRSSGSFCYCQPDS [H21Q] : protein stability index is 2.74

What the record says about FCYCAGSHKRKRSSGSQCYCHPDS [F17Q] : protein stability index is 2.61

What the record says about FCYCAGNHKRKRSSGSFCYCHPDS [S7N] : protein stability index is 2.16

What the record says about FCYCALSHKRKRSSGSFCYCHPDS [G6L] : protein stability index is 2.44
